Test system: DIV17
Assay: qHTS profiling for inhibitors of Plasmodium falciparum proliferation (AID 504749); also: nearly all actives have a fitted effect of over 60% in size
Details: P. falciparum in erythrocytes, SYBR Green DNA, 72 h; series mostly up to 28.7 µM
Records with an inconclusive call do not appear. Calls of active or inactive are those of the source. Calls follow the shape of the dose curve; as a rule, active = well fitted inhibition curve with a large enough effect; inconclusive = small, poorly fitted or top-dose-only effect; inactive = flat fitted curve, though single readings scatter.
Return exactly one item of active, inactive

See these solved cases before continuing.
>>> df
                                smilesinput  labelclass
0                          COC(=O)c1ccccc1O    inactive
1  CO/N=C(\C(=O)N[C@@H]1C(=O)N2C(C(=O)[O-])=C(C[n+]3cccc4c3CCC4)CS[C@H]12)c1csc(N)n1    inactive
2               OCC1(CO)COC(C(Cl)(Cl)Cl)OC1    inactive
3  O=c1[nH]c(=O)n([C@H]2C[C@H](O)[C@@H](CO)O2)cc1/C=C/Br    inactive
4                                 C=CC(=O)O    inactive

Next, consider the following compound.
Prompt: Identify the outcome logged in this assay for the compound shown: CCOC(=O)c1c[nH]c2cc(OCC(C)C)c(OCC(C)C)cc2c1=O
Response: active

====

Here, each record is paired with measured activity, negative = inhibition data.
Test: qHTS profiling for inhibitors of Plasmodium falciparum proliferation (AID 504749); also: nearly all actives have a fitted effect of over 60% in size;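 as to activity, negative = inhibition: 0% = DMSO vehicle and full inhibition = artemisinin control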
Conditions: P. falciparum in erythrocytes, SYBR Green DNA, 72 h; at 28.7 µM (top of the series); parasite line B
Inconclusive results are not listed.
Supply the numeric figure in %, leaving out any unit text.

See these solved cases before continuing.
compound	reported
Cc1cc(-c2ccc(N=Nc3ccc4c(S(=O)(=O)O)cc(S(=O)(=O)O)c(N)c4c3O)c(C)c2)ccc1N=Nc1ccc2c(S(=O)(=O)O)cc(S(=O)(=O)O)c(N)c2c1O	5.39
Cc1cc(C(=O)NCCc2ccc(S(=O)(=O)NC(=O)NN3CCCCCC3)cc2)no1	6.94
NC(=O)[C@@H]1CCCN1C(=O)[C@H](Cc1cnc[nH]1)NC(=O)[C@@H]1CCC(=O)N1	4.94

Prompt: So what does the record say about activity, negative = inhibition for NC(=S)NS(=O)(=O)c1ccc(N)cc1 ?
Response: -5.51

Prompt: Another: Oc1cc(O)cc(O)c1
Response: -2.93

Prompt: Another: C[C@@](Cc1ccc(O)c(O)c1)(NN)C(=O)O
Response: -6.85

Prompt: Another: CN(Cc1ccccc1)Cc1ccccc1
Response: -0.726

Prompt: Another: O=C(O)COc1ccccc1/C=N/NC(=O)c1ccncc1
Response: 0.92

Prompt: Another: CN1C(=O)C[C@@H](C(=O)N[C@@H](Cc2cnc[nH]2)C(=O)N2CCC[C@H]2C(N)=O)NC1=O
Response: -7.4

Prompt: Another: S=C=Nc1ccc(N=C=S)cc1
Response: 0.756

Prompt: Another: COC(=O)CC[C@H](N)C(=O)O
Response: 11.5

Prompt: Another: CC/C=C\C/C=C\C/C=C\CCCCCCCC(=O)O
Response: -1.74

Prompt: Another: CC1CC(O)CC(C)(C)C1 (stereo not drawn)
Response: 7.51

====

Experiment: S16 Schwann cell PMP22 intronic element firefly luciferase assay (AID 624032); also: nearly all actives have a fitted effect of over 30% in size
Conditions: S16 rat Schwann cells, PMP22 element FLuc, 24 h; series mostly up to 57.5 µM
Protocol: Charcot-Marie-Tooth-Association [CMTA] National Center for Advancing Translational Sciences [NCATS] […] The FLuc-expressing S16 cells were seeded in white solid 1536-well plates at between 500-750 cells/4uL in DMEM medium containing 10% FBS, w/o phenol red. […] Luminescence was measured on a ViewLux plate reader (Perkin Elmer). The % activity was determined by normalizing to the average readings of PTC124 (a positive control) - treated cells relative to DMSO-treated cells (0% Activity). […]
Inconclusive results are not listed. Activity calls are given as the source filed them. Calls come from the whole dose curve; as a rule, active = well fitted inhibition curve with a large enough effect; inconclusive = small, poorly fitted or top-dose-only effect; inactive = no such curve, though single readings can be large or run the other way.
Return exactly one item of active, inactive

molecule	labelClass
Cn1c(O)c(N=NC(N)=S)c2ccccc21	inactive
Cc1cccc(Nc2ncccc2C(=O)O)c1C	inactive
CC(/C=C/C=C(\C)C(=O)O[C@@H]1O[C@H](CO[C@@H]2O[C@H](CO)[C@@H](O)[C@H](O)[C@H]2O)[C@@H](O)[C@H](O)[C@H]1O)=C\C=C\C=C(C)\C=C\C=C(/C)C(=O)O[C@@H]1O[C@H](CO[C@@H]2O[C@H](CO)[C@@H](O)[C@H](O)[C@H]2O)[C@@H](O)[C@H](O)[C@H]1O	inactive
c1ccc(-n2cnnn2)cc1	inactive
CCCCCCCCCCCCCCCCOCCOCCOCCOCCOCCOCCOCCOCCOCCOCCOCCOCCOCCOCCOCCOCCOCCOCCOCCOCCO	active

Prompt: Identify the outcome logged in this assay for the molecule shown: O=C(NCCNCC(O)COc1ccc(O)cc1)N1CCOCC1 (stereo not drawn)
Response: inactive

Prompt: Another: CCOC(=O)Cc1ccc(-c2ccccc2)cc1
Response: inactive

Prompt: Another: COc1ccc2nc(NC(=O)Nc3ccccc3)sc2c1
Response: inactive

Prompt: Another: OCCCNc1ccccc1
Response: inactive

Prompt: Another: OB(O)O
Response: inactive

Prompt: Another: COC(=O)CCC[N+](C)(C)C
Response: inactive

====

Tested on: W2
Assay: qHTS profiling for inhibitors of Plasmodium falciparum proliferation (AID 504749); also: nearly all actives have a fitted effect of over 60% in size
Conditions: P. falciparum in erythrocytes, SYBR Green DNA, 72 h; series mostly up to 28.7 µM
Inconclusive results are not listed. Calls of active or inactive are those of the source. Calls follow the shape of the dose curve; as a rule, active = well fitted inhibition curve with a large enough effect; inconclusive = small, poorly fitted or top-dose-only effect; inactive = flat fitted curve, though single readings scatter.
Return exactly one item of active, inactive

See these solved cases before continuing.
>>> print(df.to_string())
                                   molecule  labelclass
0            COc1ccc(/C=C/C(=O)OCCC(C)C)cc1    inactive
1                                    CC(C)O    inactive
2  C/C(=C\C(=O)OCCCCCCCCC(=O)O)C[C@@H]1OC[C@H](C[C@@H]2O[C@H]2[C@@H](C)[C@H](C)O)[C@@H](O)[C@H]1O      active
3                   C=Cc1ccc(S(=O)(=O)O)cc1    inactive
4         C[C@H](N)C(=O)N[C@@H](C)P(=O)(O)O    inactive

Prompt: Identify the outcome logged in this assay for the molecule shown: O=C(O)[C@H]1CN(C/C=C/P(=O)(O)O)CCN1
Response: inactive

Prompt: Another: CCN(CC)C(=O)c1cccnc1
Response: inactive

Prompt: Another: O=C(NNCS(=O)(=O)O)c1ccncc1
Response: inactive

Prompt: Another: NC(=O)[C@@H]1CCCN1C(=O)[C@H](Cc1cnc[nH]1)NC(=O)[C@@H]1CCC(=O)N1
Response: inactive

Prompt: Another: CC(=O)NCCCS(=O)(=O)O
Response: inactive

Prompt: Another: NC(=O)[C@H]1O[C@@H](O)[C@H](O)[C@@H](O)[C@@H]1O
Response: inactive

Prompt: Another: CCCCCCCCCCCCCC(=O)OCC(COP(=O)([O-])OCC[N+](C)(C)C)OC(=O)CCCCCCCCCCCCC (configuration not stated)
Response: inactive

====

Test system: GB4
Assay: qHTS profiling for inhibitors of Plasmodium falciparum proliferation (AID 504749); also: nearly all actives have a fitted effect of over 60% in size
Conditions: P. falciparum in erythrocytes, SYBR Green DNA, 72 h; series mostly up to 28.7 µM
Results filed as inconclusive are left out. Calls of active or inactive are those of the source. Calls follow the shape of the dose curve; as a rule, active = well fitted inhibition curve with a large enough effect; inconclusive = small, poorly fitted or top-dose-only effect; inactive = flat fitted curve, though single readings scatter.
Return exactly one item of 1 = active, 0 = inactive

See these solved cases before continuing.
compound	studyTarget	labelClass
O=C1CCC(=O)N1CO	GB4	0
CCCCC[C@H](O)/C=C/[C@H]1[C@H](O)CC(=O)[C@@H]1C/C=C\CCCC(=O)O	GB4	0
N=C(N)c1ccc(/C=C/c2ccc(C(=N)N)cc2O)cc1	GB4	1
O=C(O)Cc1nn(Cc2ccc(Br)cc2F)c(=O)c2ccccc12	GB4	0
NC(N)=O	GB4	0
[O]=[Bi][O]C(=O)[O][Bi]=[O]	GB4	0
Nc1nc(=O)n([C@@H]2CS[C@H](CO)O2)cc1F	GB4	0
OC1OC[C@@H](O)[C@H](O)[C@@H]1O (stereo not given in full)	GB4	0

Next, consider the following compound.
Prompt: Identify the outcome logged in this assay for the compound shown: CCCCC(CC)COS(=O)(=O)O (stereo not given)
Response: 0

====

Test system: ECU
Test: qHTS profiling for inhibitors of Plasmodium falciparum proliferation (AID 504749); also: nearly all actives have a fitted effect of over 60% in size
Details: P. falciparum in erythrocytes, SYBR Green DNA, 72 h; series mostly up to 28.7 µM
Procedure: NIH National Institute of Allergy and Infectious Diseases [NIAID] NIH Chemical Genomics Center [NCGC] […] Because mature erythrocytes lack DNA, only Plasmodium-derived DNA is detected. NCGC Assay Protocol Summary: The SYBR Green viability assay was adapted from a method described previously (Plouffe et al., 2008). […] The following morning, fluorescence intensity at 485(14) nm excitation and 535(25) nm emission wavelengths was measured on an EnVision (Perkin Elmer) plate reader. […]
Results filed as inconclusive are left out. Active and inactive are the calls of the source. Calls follow the shape of the dose curve; as a rule, active = well fitted inhibition curve with a large enough effect; inconclusive = small, poorly fitted or top-dose-only effect; inactive = flat fitted curve, though single readings scatter.
Return exactly one item of Yes for active, No for inactive

See these solved cases before continuing.
compound	studyTarget	labelClass
CCN(CC)C(=S)S	ECU	No
CO/N=C(\C(=O)N[C@@H]1C(=O)N2C(C(=O)[O-])=C(C[n+]3cccc4c3CCC4)CS[C@H]12)c1csc(N)n1	ECU	No
O=C(O)[C@H]1C(=CCO)O[C@H]2CC(=O)N12	ECU	No
C=CC[C@@H]1/C=C(\C)C[C@H](C)C[C@H](OC)[C@H]2O[C@@](O)(C(=O)C(=O)N3CCCC[C@H]3C(=O)O[C@H](/C(C)=C/[C@@H]3CC[C@@H](O)[C@H](OC)C3)[C@H](C)[C@@H](O)CC1=O)[C@H](C)C[C@@H]2OC	ECU	Yes
CC(C)[C@@H](N)C(=O)O	ECU	No
FCOC(C(F)(F)F)C(F)(F)F	ECU	No

Next, consider the following compound.
Prompt: Identify the outcome logged in this assay for the compound shown: CC(O)CN(C)C (centres undefined)
Response: No
